B1: DLC1 (parent)
chain: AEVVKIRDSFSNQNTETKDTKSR

variants of: B1; assay: protein stability index of a GFP-peptide fusion (GPS, HEK-293T) (PSI 1-6); higher = more stable; settings: c terminus: native;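 further: lentivirally expressed fusions sorted by FACS into six bins by GFP to DsRed ratio, PSI derived from sequencing read proportions per bin multiplied by bin number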
Please note: rule met applies when protein stability index is 2 or greater, and rule not met applies otherwise.

These recorded examples may help you get a feel for the data.
| ordered-residues | category |
| --- | --- |
| AEVAKIRDSFSNQNTETKDTKSR | rule not met |
| HEVVKIRDSFSNQNTETKDTKSR | rule met |
| AEVVKIMDSFSNQNTETKDTKSR | rule met |
| AEVVKSRDSFSNQNTETKDTKSR | rule met |

Request: Quick check, protein stability index >= 2? AEVVKIRPSFSNQNTETKDTKSR
Response: rule not met

Request: Please give the result for AEVVKIRDSFSNQNTETKHTKSR too.
Response: rule met
